Hello, the source for this data is patent US20260015358A1, in case you need it.

# assay target: WRN [UniPro: Q14191 (WRN_HUMAN), N500-C946] (Homo sapiens (Human), UniProt Q14191)
# Sequence (Q14191 500-946): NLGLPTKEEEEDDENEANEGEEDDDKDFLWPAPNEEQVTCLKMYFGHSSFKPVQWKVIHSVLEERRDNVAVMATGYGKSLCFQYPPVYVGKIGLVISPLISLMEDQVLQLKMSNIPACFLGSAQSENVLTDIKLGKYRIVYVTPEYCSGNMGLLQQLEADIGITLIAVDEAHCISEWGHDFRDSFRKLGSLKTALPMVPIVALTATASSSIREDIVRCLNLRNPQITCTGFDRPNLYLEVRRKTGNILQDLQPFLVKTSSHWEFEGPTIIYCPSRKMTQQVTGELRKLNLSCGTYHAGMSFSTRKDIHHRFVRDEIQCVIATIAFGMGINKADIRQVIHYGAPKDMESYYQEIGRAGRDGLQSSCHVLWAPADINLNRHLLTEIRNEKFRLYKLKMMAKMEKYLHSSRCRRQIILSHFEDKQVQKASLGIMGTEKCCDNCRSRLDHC
# method: WRN ATPase assay (ADP-Glo)
# Type: biochemical
# protocol conditions: WRN enzymatic activity assay
value kind: IC50

// query IC50 value for entry CCc1c(N2CCN(C(=O)CNC(=O)c3ccc(F)c(NC)c3)CC2)c(=O)n2nc(N3CCOCC3)nc2n1CC(=O)Nc1ccc(C(F)(F)F)cc1F
< 100 nM

Please look up its IC50: CCc1c(N2CCN(C(=O)CNC(=O)OC(C)(C)C)CC2)c(=O)n2nc(C3=CCOCC3)nc2n1CC(=O)Nc1ccc(C(F)(F)F)cc1Cl
< 100 nM

Given the compound CCc1c(N2CCN(C(=O)CNC(=O)c3ncnc(C)c3O)CC2)c(=O)n2nc(C3=CCOCC3)nc2n1CC(=O)Nc1ccc(C(F)(F)F)cc1F , what is its reported IC50?
< 100 nM

Any idea what its IC50 is? The compound is CCc1c(N2CCN(C(=O)CNC(=O)c3cc(C)on3)CC2)c(=O)n2nc(C3=CCOCC3)nc2n1CC(=O)Nc1ccc(C(F)(F)F)cc1Cl
< 100 nM

Fill in: IC50 of CCc1c(N2CCN(C(=O)CNC(=O)c3cn(C)[nH]c3=O)CC2)c(=O)n2nc(C3=CCOCC3)nc2n1CC(=O)Nc1ccc(C(F)(F)F)cc1Cl is ___
100 to 1000 nM

Endpoint output: IC50 of CCc1c(N2CCN(C(=O)CNC(=O)N(C)Cc3ccccc3)CC2)c(=O)n2nc(C3=CCOCC3)nc2n1CC(=O)Nc1ccc(C(F)(F)F)cc1Cl . Value?
< 100 nM
